system: CAL-85-1; test: normalised viability (% of control), CellTiter-Blue; higher = more viable cells (about 100 = DMSO control); settings: 10 nM; incubation time: 72 h
The compounds listed here are annotated with their normalised viability.
observable: normalised viability (%)

structureString	resultNumber
CC(C)Cn1cnc2c(N)nc3ccccc3c21	95.2
NCC(=O)CCC(=O)O	98.4
Oc1nc(-c2ccc(C(F)(F)F)cc2)nc2c1CSCC2	96.3
Cn1c(CCCC(=O)O)nc2cc(N(CCCl)CCCl)ccc21	102
C=C(c1ccc(C(=O)O)cc1)c1cc2c(cc1C)C(C)(C)CCC2(C)C	97

====

tested on: HCC1599; experiment: normalised response (% of control), CellTox Green; higher = less cell death (100 = DMSO, 0 = benzethonium chloride kill control); conditions: incubation time: 72 h
Form field: normalised response (one value per entry).

molecule	normalised response / %
CC1(C)NC(=O)N(c2ccc([N+](=O)[O-])c(C(F)(F)F)c2)C1=O [Nilutamide] (1000 nM)	107
CN[C@@H]1C[C@H]2O[C@@](C)([C@@H]1OC)n1c3ccccc3c3c4c(c5c6ccccc6n2c5c31)C(=O)N[C@H]4O [UCN-01] (1000 nM)	79.3
C[C@]12CC[C@@H]3c4ccc(O)cc4C[C@@H](CCCCCCCCC[S+]([O-])CCCC(F)(F)C(F)(F)F)[C@H]3[C@@H]1CC[C@@H]2O (stereo not given in full) [Fulvestrant] (10 nM)	105
Cn1c(CCCC(=O)O)nc2cc(N(CCCl)CCCl)ccc21 [Bendamustine] (1000 nM)	101
CCC1(c2ccc(N)cc2)CCC(=O)NC1=O (stereo not given) [Aminoglutethimide] (1000 nM)	96.2
COc1cc([C@@H]2c3cc4c(cc3[C@@H](O[C@@H]3O[C@@H]5CO[C@@H](C)O[C@H]5[C@H](O)[C@H]3O)[C@H]3COC(=O)[C@H]23)OCO4)cc(OC)c1O [Etoposide] (10000 nM)	91
O=C1CCC(N2C(=O)c3ccccc3C2=O)C(=O)N1 (stereo not given) [Thalidomide] (10000 nM)	99.9
Cn1c(Nc2ccc(C(F)(F)F)cc2)nc2cc(Oc3ccnc(-c4ncc(C(F)(F)F)[nH]4)c3)ccc21 [RAF265] (100 nM)	98.6
CCC1(c2ccc(N)cc2)CCC(=O)NC1=O (stereo not given) [Aminoglutethimide] (10000 nM)	101
Cc1ccc(C(=O)N(CCCN)[C@@H](c2oc3cc(Cl)ccc3c(=O)c2Cc2ccccc2)C(C)C)cc1 (10 nM)	91.8
Cc1ccc(C(=O)Nc2ccc(CN3CCN(C)CC3)c(C(F)(F)F)c2)cc1C#Cc1cnc2cccnn12 [Ponatinib] (10 nM)	101
COc1cc2nccc(Oc3ccc(NC(=O)C4(C(=O)Nc5ccc(F)cc5)CC4)cc3)c2cc1OC [Cabozantinib] (1000 nM)	94.5
CN(N=O)C(=O)N[C@@H](C=O)[C@@H](O)[C@H](O)[C@H](O)CO [Streptozocin] (1000 nM)	103
Cc1ccc(-n2nc(C(C)(C)C)cc2NC(=O)Nc2ccc(OCCN3CCOCC3)c3ccccc23)cc1 [Doramapimod] (100 nM)	97.4
COc1cc2nccc(Oc3ccc(NC(=O)C4(C(=O)Nc5ccc(F)cc5)CC4)cc3)c2cc1OC [Cabozantinib] (10 nM)	91.5
CC(=O)Nc1ccc(C(=O)Nc2ccccc2N)cc1 [Tacedinaline] (1000 nM)	98.2
CS(=O)(=O)c1ccc(C2=C(c3ccccc3)C(=O)OC2)cc1 [Rofecoxib] (1000 nM)	100
CCC1=C[C@@H]2CN(C1)Cc1c([nH]c3ccccc13)[C@@](C(=O)OC)(c1cc3c(cc1OC)N(C)[C@H]1[C@@](O)(C(=O)OC)[C@H](OC(C)=O)[C@]4(CC)C=CCN5CC[C@]31[C@@H]54)C2 [Vinorelbine] (10000 nM)	70.8
CN[C@@H]1C[C@H]2O[C@@](C)([C@@H]1OC)n1c3ccccc3c3c4c(c5c6ccccc6n2c5c31)C(=O)N[C@H]4O [UCN-01] (10000 nM)	80.9
CCCCCCCCCCCCCCCCCCOP(=O)([O-])OC1CC[N+](C)(C)CC1 [Perifosine] (2500 nM)	99.3
Cc1ccc(C(=O)Nc2ccc(CN3CCN(C)CC3)c(C(F)(F)F)c2)cc1C#Cc1cnc2cccnn12 [Ponatinib] (100 nM)	97.4
O=P1(NCCCl)OCCCN1CCCl (stereo not given) [Ifosfamide] (1000 nM)	98.7
N#CCNC(=O)c1ccc(-c2ccnc(Nc3ccc(N4CCOCC4)cc3)n2)cc1 [Momelotinib] (10000 nM)	90
Cc1ccc(C(=O)N(CCCN)[C@@H](c2oc3cc(Cl)ccc3c(=O)c2Cc2ccccc2)C(C)C)cc1 (100 nM)	99.7
CS(=O)(=O)c1ccc(C2=C(c3ccccc3)C(=O)OC2)cc1 [Rofecoxib] (100 nM)	101
